B1: Transitional endoplasmic reticulum ATPase, residues 26 to 106; numbered along this chain, P55072 (parent)
chain: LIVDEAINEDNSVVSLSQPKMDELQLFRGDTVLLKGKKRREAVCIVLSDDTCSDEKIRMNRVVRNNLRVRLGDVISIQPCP

variants of: B1; experiment: abundance fitness (aPCA) (normalised: wild type 0, dead -1); higher = more abundant; growth selection in yeast, the domain comes from the species named; conditions: Homo sapiens
// reported abundance fitness per item

- MUTATION_STRING: "S53I"
  abundance fitness: -0.204
- MUTATION_STRING: "S17A"
  abundance fitness: -0.174
- MUTATION_STRING: "V13Q"
  abundance fitness: -0.112
- MUTATION_STRING: "R58C"
  abundance fitness: -0.255
- MUTATION_STRING: "Q25K"
  abundance fitness: -0.013
- MUTATION_STRING: "L1T"
  abundance fitness: -0.424
- MUTATION_STRING: "I57A"
  abundance fitness: -0.356
- MUTATION_STRING: "A42L"
  abundance fitness: -0.049
- MUTATION_STRING: "K38Y"
  abundance fitness: -0.088
- MUTATION_STRING: "G72M"
  abundance fitness: -0.392
- MUTATION_STRING: "A6C"
  abundance fitness: -0.048
- MUTATION_STRING: "L26D"
  abundance fitness: -0.768
- MUTATION_STRING: "D22I"
  abundance fitness: -0.118
- MUTATION_STRING: "L71A"
  abundance fitness: 0.114
- MUTATION_STRING: "I75K"
  abundance fitness: -1.05
- MUTATION_STRING: "G29L"
  abundance fitness: -0.209
- MUTATION_STRING: "V32P"
  abundance fitness: -1.09
- MUTATION_STRING: "D50H"
  abundance fitness: -0.021
- MUTATION_STRING: "K20D"
  abundance fitness: -0.39
- MUTATION_STRING: "Q25M"
  abundance fitness: -0.106
- MUTATION_STRING: "K35P"
  abundance fitness: -0.869
- MUTATION_STRING: "V43Q"
  abundance fitness: 0.147
- MUTATION_STRING: "V74A"
  abundance fitness: 0.031
- MUTATION_STRING: "D73R"
  abundance fitness: -0.715
- MUTATION_STRING: "Q78P"
  abundance fitness: -0.256
- MUTATION_STRING: "L34Q"
  abundance fitness: -0.461
- MUTATION_STRING: "C52L"
  abundance fitness: 0.018

Cited source: the Human Domainome abundance scans (Beltran et al. 2025)
